Below: a set of entries, each annotated with reported pIC50.
Test system: 786-O (renal cell carcinoma) cells
assay-notes: Cell viability (CellTiter Glo) assay, inhibition of 786-O cell proliferation
Assay type: cell-based
cond: Homo sapiens, 786-0; 786-O cells, 72 hours, CellTiter Glo; read-out: IC50, inhibition of 786-O cell proliferation
pIC50: −log10 of the molar value.

Answered examples (3):
>  <structure-smiles>
CNc1nc(COC(=N)N2CCC[C@@H]2C(F)(F)F)nc2c1C1(CCCC1)C(=O)N2c1cnc(N2C3CCC2COC3)nc1

>  <result>
> 7.00

$$$$
>  <structure-smiles>
CC(C)N(CC(F)(F)F)C(=N)OCc1ncc2c(n1)N(c1ccc(N3CCOCC3)nc1)C(=O)CC2

>  <result>
< 5.30

$$$$
>  <structure-smiles>
CNc1nc(COC(=N)N(CC(F)(F)F)C(C)C)nc2c1C1(CC1)C(=O)N2c1ccc(N2CCCCC2)nc1

>  <result>
> 7.00

$$$$

API: the following record is the query input.
Which pIC50 reading was recorded for the compound CCN(CC(F)(F)F)C(=N)OCc1ncc(C#N)c(Nc2ccc(Oc3ccccc3)cc2)c1F ?
5.30 to 6.30

* * *

Test system: 786-O (renal cell carcinoma) cells
assay-notes: Cell viability (CellTiter Glo) assay, inhibition of 786-O cell proliferation
Format: cell-based
cond: Homo sapiens, 786-0; 786-O cells, 72 hours, CellTiter Glo; read-out: IC50, inhibition of 786-O cell proliferation
pIC50: −log10 of the molar value.
Each entry below carries its reported pIC50.

Worked cases, answers included:
>  <compound>
CNc1nc(COC(=N)N2CCC[C@@H]2C(F)(F)F)nc2c1C(C)(C)C(=O)N2c1ccc2c(c1)CCO2

>  <tgt>
786-O (renal cell carcinoma) cells

>  <pIC50>
> 7.00

$$$$
>  <compound>
CCN(CC(F)(F)F)C(=N)OCc1nc(N)c2c(n1)N(c1ccc(N3C[C@@H](C)O[C@@H](C)C3)nc1)C(=O)C2(C)C

>  <tgt>
786-O (renal cell carcinoma) cells

>  <pIC50>
6.30 to 7.00

$$$$
>  <compound>
CNc1nc(COC(=N)N2CCOCC2C(F)(F)F)nc2c1C1(CCCC1)C(=O)N2c1cnc(N2C[C@@H](C)O[C@@H](C)C2)nc1 (stereo partly shown)

>  <tgt>
786-O (renal cell carcinoma) cells

>  <pIC50>
6.30 to 7.00

$$$$
>  <compound>
CNc1nc(COC(=N)N(C)C2COC2)nc2c1C(C)(C)C(=O)N2c1ccc(OC2CCCCC2)cc1

>  <tgt>
786-O (renal cell carcinoma) cells

>  <pIC50>
6.30 to 7.00

$$$$
>  <compound>
CC1(C)CN(c2ccc(Oc3ccccc3)cc2)c2nc(COC(=N)NC34CC5CC(CC(C5)C3)C4)nc(N)c21

>  <tgt>
786-O (renal cell carcinoma) cells

>  <pIC50>
6.30 to 7.00

$$$$
>  <compound>
N=C(OCc1nc(N)c2c(n1)N(c1ccc(F)c(F)c1)C(=O)C21CCCC1)N1CCC[C@@H]1C(F)(F)F

>  <tgt>
786-O (renal cell carcinoma) cells

>  <pIC50>
> 7.00

$$$$

Shifting focus to the compound that follows.
Any idea what pIC50 was measured for CC1(C)CN(c2ccc(Oc3ccccc3)cc2)c2nc(COC(=N)N3CCCC34COC4)ncc21 ?
5.30 to 6.30

* * *

Tested on: 786-O (renal cell carcinoma) cells
assay-notes: Cell viability (CellTiter Glo) assay, inhibition of 786-O cell proliferation
Assay type: cell-based
cond: Homo sapiens, 786-0; 786-O cells, 72 hours, CellTiter Glo; read-out: IC50, inhibition of 786-O cell proliferation
assay-metric: IC50

Here are 7 molecules together with their reported answers.
>  <molecule>
CC1(C)CN(c2ccc(Oc3ccccc3)cc2)c2nc(COC(=N)N3CCCCC3C(F)(F)F)nc(N)c21 (centres unmarked)

>  <IC50>
< 100 nM

$$$$
>  <molecule>
CN1CCCN=C1OCc1ncc2c(n1)N(c1ccc(Oc3ccccc3)cc1)CC2(C)C

>  <IC50>
> 5000 nM

$$$$
>  <molecule>
CN1CCN(C(=N)OCc2nc(N)nc(Nc3ccc(Oc4ccccc4)cc3)n2)CC1

>  <IC50>
100 to 500 nM

$$$$
>  <molecule>
N=C(OCc1ncc2c(n1)N(c1cnc(N3CCC(F)(F)CC3)nc1)C(=O)C21CCCC1)N1CCC[C@@H]1C(F)(F)F

>  <IC50>
< 100 nM

$$$$
>  <molecule>
CNc1nc(COC(=N)N2CCC[C@@H]2C(F)(F)F)nc2c1C1(CCCC1)C(=O)N2c1cnc(N2C[C@@H](C)O[C@@H](C)C2)nc1

>  <IC50>
< 100 nM

$$$$
>  <molecule>
CCN(CC(F)(F)F)C(=N)OCc1nccc(Nc2ccc(Oc3ccccc3)cc2)n1

>  <IC50>
100 to 500 nM

$$$$
>  <molecule>
CC(C)N(CC(F)(F)F)C(=N)OCc1ncc2c(n1)N(c1ccccc1Oc1ccccc1)CC21CC1

>  <IC50>
100 to 500 nM

$$$$

Shift focus to the following entry.
Record request: IC50 value, item CNc1nc(COC(=N)N2CCC[C@@H]2C(F)(F)F)nc2c1C1(CCCC1)C(=O)N2c1cnc(N2CCOCC2)nc1
< 100 nM

* * *

# pIC50 per record follows
System: 786-O (renal cell carcinoma) cells
assay-notes: Cell viability (CellTiter Glo) assay, inhibition of 786-O cell proliferation
Type: cell-based
cond: Homo sapiens, 786-0; 786-O cells, 72 hours, CellTiter Glo; read-out: IC50, inhibition of 786-O cell proliferation
pIC50: −log10 of the molar value.

>  <compound>
CNc1nc(COC(=N)N2CC(F)(F)C[C@@H]2C)nc2c1C(C)(C)C(=O)N2c1ccc(N2C[C@@H](C)O[C@@H](C)C2)nc1

>  <assay-metric>
pIC50

>  <result>
6.30 to 7.00

$$$$
>  <compound>
CC1(C)C(=O)N(c2ccc(N3CCOCC3)cc2)c2nc(COC(=N)N3CC(F)C[C@H]3C(F)(F)F)nc(N)c21 (stereo partly drawn)

>  <assay-metric>
pIC50

>  <result>
6.30 to 7.00

$$$$
>  <compound>
CC(C)N(CC(F)(F)F)C(=N)OCc1ncc2c(n1)N(c1ccc(OC3CCOCC3)cc1)CC21CC1

>  <assay-metric>
pIC50

>  <result>
6.30 to 7.00

$$$$
>  <compound>
N=C(OCc1ncc2c(n1)N(c1ccc(OC3CCOCC3)nc1)CC21CC1)N1CC(F)(F)C1

>  <assay-metric>
pIC50

>  <result>
5.30 to 6.30

$$$$
>  <compound>
N=C(OCc1nc(N)nc(Nc2ccc(Oc3ccccc3)cc2)n1)N1CCOCC1

>  <assay-metric>
pIC50

>  <result>
6.30 to 7.00

$$$$
>  <compound>
N=C(OCc1nc(N)nc(Nc2ccc(Oc3ccccc3)cc2)n1)N(CC(F)(F)F)C1CCOCC1

>  <assay-metric>
pIC50

>  <result>
> 7.00

$$$$
>  <compound>
C#CCOc1cccc(Oc2ccc(Nc3nc(N)nc(COC(=N)N4CCCCC4C(F)(F)F)n3)cc2)c1 (stereo not drawn)

>  <assay-metric>
pIC50

>  <result>
> 7.00

$$$$
>  <compound>
CC(C)N(CC(F)(F)F)C(=N)OCc1ncc(C2CCCCO2)c(Nc2ccc(N3CCOCC3)nc2)n1 (stereo not drawn)

>  <assay-metric>
pIC50

>  <result>
5.30 to 6.30

$$$$
>  <compound>
N=C(OCc1nc(N)c2c(n1)N(c1cnc(N3CCOCC3)nc1)C(=O)C21CCCC1)N1CCC[C@@H]1C(F)(F)F

>  <assay-metric>
pIC50

>  <result>
> 7.00

$$$$
>  <compound>
CNc1nc(COC(=N)N2CCCC2C(F)(F)F)nc2c1C(C)(C)C(=O)N2c1ccc(N2CCC(F)(F)CC2)nc1 (stereo not drawn)

>  <assay-metric>
pIC50

>  <result>
> 7.00

$$$$

Please turn your attention to the following entry.
Which pIC50 is listed for CC(C)N(CC(F)(F)F)C(=N)OCc1ncc2c(n1)N(c1ccc(OC3CCCCC3)cn1)CC2(C)C ?
5.30 to 6.30

* * *

Tested on: 786-O (renal cell carcinoma) cells
assay-notes: Cell viability (CellTiter Glo) assay, inhibition of 786-O cell proliferation
Assay type: cell-based
cond: Homo sapiens, 786-0; 786-O cells, 72 hours, CellTiter Glo; read-out: IC50, inhibition of 786-O cell proliferation
pIC50: −log10 of the molar value.
Each record here notes measured pIC50.

Consider the reported pIC50 for these compounds:
>  <compound>
CC1(C)CC(c2ncc(N3C(=O)C4(CCCC4)c4c(N)nc(COC(=N)N5CCOCC5C(F)(F)F)nc43)cn2)CC(C)(C)O1 (stereo not drawn)

>  <pIC50>
5.30 to 6.30

$$$$
>  <compound>
CCN(CC(F)(F)F)C(=N)OCc1nccc(Nc2ccc(N3CCOCC3)nc2)n1

>  <pIC50>
5.30 to 6.30

$$$$
>  <compound>
C[C@@H]1CN(c2ncc(N3C(=O)C4(CCCC4)c4c(N)nc(COC(=N)N5CCOC[C@H]5C(F)(F)F)nc43)cn2)C[C@H](C)O1 [Compound E104A]

>  <pIC50>
6.30 to 7.00

$$$$

Here is another compound to look at.
Sample Nc1nc(COc2nc(=O)[nH]c(=O)[nH]2)nc(Nc2ccc(Oc3ccccc3)cc2)n1 — what was its pIC50?
< 5.30
